- Procedure Text: gradient 5% acetonitrile 3 min, to 50% in 2 min, to 85% in 15 min, held 3 min, 100 µL/min
- Study Conditions: column: Zorbax Extend-C18 2.1 x 50 mm; eluents: water / acetonitrile, 0.1% formic acid
Measured Parameter: RP-LC retention time (s)

In the examples that follow, each entry is paired with its recorded RP-LC retention time.
*Q* Write down RP-LC retention time measured for item COc1cc(NC(=O)CN2C(=O)C(C)(C)c3ccccc32)cc(OC)c1
*A* 876

*Q* Write down RP-LC retention time measured for item O=C(CN1C(=O)C2CCCN2C(=O)c2ccccc21)c1ccc(Br)cc1 (stereo not given)
*A* 823

*Q* Write down RP-LC retention time measured for item O=C(Cc1ccc(Cl)cc1)Nc1ccsc1-c1nnc(C2CC2)o1
*A* 1190

(I) CCC(CC)NC(=O)C1CCCCc2nnc(C(C)C)n21 (stereo not given)
(II) CCn1cc(-c2nc(C(=O)NCc3ccccc3C)cs2)c2cccnc21
*Q* Pick the one with the larger RP-LC retention time: I vs II Mark your answer with the label of the selected entry.
*A* II
